# test system: Fes (UniProt P07332)
# Sequence (P07332 whole entry, looked up): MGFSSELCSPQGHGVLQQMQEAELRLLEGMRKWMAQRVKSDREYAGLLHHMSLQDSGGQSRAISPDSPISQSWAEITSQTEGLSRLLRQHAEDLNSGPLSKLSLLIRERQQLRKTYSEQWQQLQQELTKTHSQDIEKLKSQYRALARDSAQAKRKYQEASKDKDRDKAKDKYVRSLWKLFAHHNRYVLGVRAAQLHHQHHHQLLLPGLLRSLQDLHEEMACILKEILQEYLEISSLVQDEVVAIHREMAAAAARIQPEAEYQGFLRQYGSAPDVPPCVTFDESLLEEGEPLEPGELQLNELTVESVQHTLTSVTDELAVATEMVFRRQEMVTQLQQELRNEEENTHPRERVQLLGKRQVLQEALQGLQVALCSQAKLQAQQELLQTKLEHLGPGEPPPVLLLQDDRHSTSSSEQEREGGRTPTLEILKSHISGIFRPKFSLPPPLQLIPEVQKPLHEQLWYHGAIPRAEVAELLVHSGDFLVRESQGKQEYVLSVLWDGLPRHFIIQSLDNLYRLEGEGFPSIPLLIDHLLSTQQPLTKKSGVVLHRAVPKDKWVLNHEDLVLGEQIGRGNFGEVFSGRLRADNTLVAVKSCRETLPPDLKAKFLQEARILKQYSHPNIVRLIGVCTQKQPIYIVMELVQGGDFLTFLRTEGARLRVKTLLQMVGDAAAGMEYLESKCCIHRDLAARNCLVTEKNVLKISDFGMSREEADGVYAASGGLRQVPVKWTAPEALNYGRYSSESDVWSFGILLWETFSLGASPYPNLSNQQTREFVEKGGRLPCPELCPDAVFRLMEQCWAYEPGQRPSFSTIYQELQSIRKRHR
# assay procedure: phosphorylation enrichment, bacterial display (enrichment ratio); higher = better substrate or ligand; peptides without Tyr show the background;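 further: 11-residue human phosphosite peptides and single-mutation variants displayed on the E. coli surface, counted by deep sequencing, each peptide's frequency after selection divided by its frequency in the unselected input library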;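 further: frequency after pTyr selection over input frequency; kinase dosed for 20-30% of maximal phosphorylation in three min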
Label rule, in plain words: phosphorylation enrichment of 0.8 and up is Condition met, under 0.8 is Condition not met.

Sample answers from the record:
Input: Given EMFNPYYGLFE [NEDD4L_Y679] , state whether its phosphorylation enrichment is at least 0.8.
Output: Condition met

Input: What do you have for FSIDHYLGKEM [G6PD_Y202_R198S_YF] ?
Output: Condition met

Input: What do you have for DLGIQYKVLKP [CTNNA1_Y177_A179V] ?
Output: Condition met

Input: What do you have for AFPGEYIPTVF [RAC1_Y32] ?
Output: Condition met

Input: What do you have for SSREEYFIGGG [GYPC_Y126_K124E] ?
Output: Condition met

Continuing:
Input: Given FDEFRYRSFIK [CFTR_Y517_V520F_YF] , state whether its phosphorylation enrichment is at least 0.8.
Output: Condition not met

Input: What do you have for EVEPRYVVLFD [ERCC4_Y577_YF] ?
Output: Condition met

Input: What do you have for GFSDPYVKASL [SYT3_Y470] ?
Output: Condition not met

Input: What do you have for PTQLPYDHKWK [KIT_Y578_E583K] ?
Output: Condition not met
